Please go through the items and note down their growth inhibition.
- ASSAY: NCI Yeast Anticancer Drug Screen. Data for the rad18 strain (AID 177)
- REPORTED CONDITIONS: S. cerevisiae rad18 mutant growth inhibition; at 100.0 µM; hits give high values
The panel holds about 79,000 compounds, 15% with a hit somewhere; the sample as a whole holds those more often.
Answers are plain numbers, in %.

{"columns": ["COMPOUND", "growth inhibition [%]"],
 "data": [
  ["CC(C)(C)C1=CC(=CC=C2C=CN(CCCCCCCCCCCO)C=C2)C=C(C(C)(C)C)C1=O", 97]
]}

State the recorded growth inhibition for every item in the following list.
1. c1ccc2c(OCC3CO3)cccc2c1 (centres undefined)
2. CCCCCCCCCCCCCCCCCC(=O)NCCCN(C)C
3. Cc1csc(=S)n1OC(=O)NC1CCCCC1
4. CC1=NOC(=O)/C1=C/c1ccc2c(c1)OCO2
5. c1ccc(-c2cnc3ccccc3c2)cc1
6. CN(C)[C@@H]1C(=O)C(C(N)=O)=C(O)[C@@]2(O)C(=O)C3=C(O)c4c(O)cccc4C[C@H]3C[C@@H]12
7. O=P(NC1CCCCC1)(OCc1ccccc1)OCc1ccccc1
8. C=C1C(=O)OC2CC1C(OC(C)=O)C/C(C)=C/CC/C(C)=C\CCC2(C)O (centres undefined)

Solution:
[98, 97, 98, 61, 99, 99, 28, 91]

###

- ASSAY: NCI Yeast Anticancer Drug Screen. Data for the CLN2oe strain (AID 163);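 further: 0% = growth of vehicle-only control cultures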
- REPORTED CONDITIONS: S. cerevisiae CLN2oe strain, at 33.0 µM, hits give high values
The panel holds about 79,000 compounds, 15% with a hit somewhere; the sample as a whole holds those more often.
RESULT TYPE: growth inhibition (%)
One number for each entry, in %.

Illustrative cases are given below, each with its answer.
{"columns": ["COMPOUND", "growth inhibition, %"],
 "data": [
  ["COc1cc2cc3c4cc(OC)c(OC)cc4cc[n+]3c(C)c2cc1OC", -39],
  ["CC1=CC(=C(c2ccc(N)cc2)c2ccc(N)cc2)C=CC1=N", 23],
  ["CCN(CC)CCOc1cc(C)c2cc(Cc3ccccc3)ccc2n1", 15],
  ["c1ccc2c(c1)sc1c3cnccc3ccc21", 5],
  ["C=C(C(=C)n1nnc(C(=O)OC)c1C(=O)OC)n1nnc(C(=O)OC)c1C(=O)OC", 0]
]}

Turning now to a further record.
Problem: Recorded growth inhibition of CCCCCCN(CCCCCC)CC(O)c1ccnc2ccc(OC)cc12 (stereo unspecified) , please.
Solution: 1

###

- ASSAY: NCI Yeast Anticancer Drug Screen. Data for the wt1 strain (AID 149);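 further: 0% = growth of vehicle-treated wt1 cultures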
- REPORTED CONDITIONS: S. cerevisiae wt1 strain (SPY 50644) growth inhibition; at 3.7 µM; hits give high values
About 79,000 compounds went through this panel and 15% of them were active in at least one assay; those are over-represented in the sample as a whole.
RESULT TYPE: growth inhibition (%)
Answers are plain numbers, in %.

Example compounds with recorded growth inhibition:
{"columns": ["COMPOUND", "UNITS LABEL", "OBSERVED RESULT"],
 "data": [
  ["CC(=O)OCC(C)Cc1cc2c(cc1Br)OCO2 (configuration not stated)", "%", -5],
  ["NC(N)=NS(=O)(=O)c1ccc(Nc2c3ccccc3nc3c(C(=O)NCCO)cccc23)cc1", "%", 1],
  ["CNCCCNc1c2ccccc2nc2cccc([N+](=O)[O-])c12", "%", 28],
  ["N=C1N=Nc2nc(C3(c4nc5n(c4O)C(=N)N=N5)Cc4ccccc4C3=O)c(O)n21 (configuration not stated)", "%", 7],
  ["CN(C)Cc1cc(N=Nc2ccc(Cl)cc2)ccc1OC(=O)c1ccccc1", "%", 1]
]}

Parameter requested: growth inhibition. Apply to each item below.
1. Nc1ncc(-c2ccc(Br)cc2)s1
2. O=C1c2cccnc2C(=O)C2C3C=CC(C3)C12 (configuration not stated)
3. CCOC(=O)CC1(C(=O)OCC)c2[nH]c3ccccc3c2CCN1Cc1ccccc1 (configuration not stated)
4. Cc1ccc(NCCNCCO)c2c(=O)c3cc(O)ccc3sc12
5. CN(C)C=NC1CCC(C(C)(C)C)CC1 (configuration not stated)
6. O=C1CC(=O)c2ccccc21
7. Cc1ccc(Cl)cc1NC(=O)OCCN(C)C(=O)Nc1cc(Cl)ccc1C
8. CC(=O)ON=C1C=CC(=C(C#N)c2ccc(Cl)cc2)C=C1

Solution:
1. 17
2. 20
3. -2
4. -9
5. -5
6. -1
7. -35
8. 0

Quick batch: growth inhibition for everything below.
1. CC1(C)CC(=O)C(/C=N/c2nc(-c3ccccc3)cs2)=C(O)C1
2. CC(=O)Nc1ccc2c(c1)Cc1cc(N=C3C=CC(=O)O3)ccc1-2
3. O=C1/C(=C/c2ccccc2)CCCC1CN1CCCCC1 (configuration not stated)
4. N#CC1=C(N)N(/N=C/c2ccccc2)C(c2ccccc2)C1(C#N)C#N (configuration not stated)

Solution:
1: 2; 2: 14; 3: 19; 4: 12

Answer for every listed entry: what is its growth inhibition? The entries follow.
1. Oc1ccc(O)c(Cc2ccccc2)c1
2. Cc1cc(C(C)(C)C)c(OCCCN2CCOCC2)c(C(C)(C)C)c1
3. Cc1c2ccnc(C(=O)NCCN(C)C)c2cc2c3cc(O)ccc3n(C)c12
4. N#CC(C#N)=NNc1ccc(S(=O)(=O)O)cc1
5. CC(C)(C)C1=CC(=CC=C2C=CN(CCCCCCCCCCCO)C=C2)C=C(C(C)(C)C)C1=O
6. Cc1nc2ccc(N=NN(C)C)cc2[nH]1
7. COc1cc(/C=C2\CCC/C(=C\c3ccc(O)c(OC)c3)C2=O)ccc1O

Solution:
1: 14; 2: 0; 3: 5; 4: -18; 5: 46; 6: 6; 7: 10

###

- ASSAY: NCI Yeast Anticancer Drug Screen. Data for the bub3 strain (AID 167)
- REPORTED CONDITIONS: S. cerevisiae bub3 mutant strain, at 50.0 µM (retest, dose inferred, filed as 5.0), hits give high values
About 79,000 compounds went through this panel and 15% of them were active in at least one assay; those are over-represented in the sample as a whole. Calls of active or inactive are those of the source. No stated cut-off is given here; in the data, active means growth inhibition above about 70%; inactive means the rest.
RESULT TYPE: growth inhibition

Give growth inhibition for all molecules that follow.
1. O=C(NNc1ccccc1)c1ccc(Cl)c(Cl)c1
2. O=C1/C(=C/c2ccccc2)CCCC1CN1CCCCC1 (stereo not given)
3. O=C1CC(=O)c2ccccc21
4. NC(N)=NS(=O)(=O)c1ccc(Nc2c3ccccc3nc3c(C(=O)NCCO)cccc23)cc1

Solution:
1. 13% (inactive)
2. 83% (active)
3. 6% (inactive)
4. 33% (inactive)

Quick one: give me growth inhibition for each item below, same order please.
1. N=C1N=Nc2nc(C3(c4nc5n(c4O)C(=N)N=N5)Cc4ccccc4C3=O)c(O)n21 (stereo not given)
2. O=c1[nH]c(-c2ccccc2)nc2c1sc1nc3ccccc3n12

Solution:
1: 42% (inactive); 2: 7% (inactive)

###

- ASSAY: NCI Yeast Anticancer Drug Screen. Data for the rad52 strain (AID 147);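 further: 0% = growth of vehicle-treated control cultures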
- REPORTED CONDITIONS: S. cerevisiae rad52 mutant growth inhibition; at 100.0 µM; hits give high values
- Description: Growth inhibition of yeast strains with defined genetic alterations is measured as a screen for potential anti-cancer activity. Selected strains with alterations in DNA damage repair or cell cycle control were exposed to compounds and growth inhibition was measured relative to vehicle treated controls. The strain used in this assay is rad52
This is part of a sample that, as a whole, favours compounds with a hit. Of some 79,000 tested, about 15% had one in any assay.
Consider the following compounds; for each one, report its growth inhibition.
Give bare numbers, in %.

Previously resolved entries follow.
{"columns": ["MOL", "growth inhibition [%]"],
 "data": [
  ["CN(C)c1nc(=Nc2cccc(Cl)c2)ss1", 99],
  ["CS(=O)(=O)SCc1ccc([N+](=O)[O-])cc1", 97]
]}

// for each compound below, give its growth inhibition
1. c1ccc2[nH]c(-c3cscn3)nc2c1
2. CNC(=O)OCc1c(COC(=O)NC)c2n(c1C)-c1ccc(OC)cc1CCC2
3. COC(=O)/C=C(/C(=O)OC)C(Cl)(Cl)Cl

Solution:
-1
99
100

Dear reader, for each entry below, please note its growth inhibition.
1. CCOC1(c2cccc([N+](=O)[O-])c2)c2ccccc2Oc2ccccc21
2. CCCCCCOC(=O)NCCOC(=O)Nc1ccccc1

Solution:
1. 19
2. 6

###

- ASSAY: NCI Yeast Anticancer Drug Screen. Data for the sgs1 strain (AID 173);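 further: 0% = growth of vehicle-only control cultures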
- REPORTED CONDITIONS: S. cerevisiae sgs1 mutant, at 1.2 µM, hits give high values
About 79,000 compounds went through this panel and 15% of them were active in at least one assay; those are over-represented in the sample as a whole.
RESULT TYPE: growth inhibition (%)
Give bare numbers, in %.

Example cases with answers are listed next.
{"columns": ["COMPOUND", "UNITS LABEL", "growth inhibition"],
 "data": [
  ["Cc1sc2ccc3ccccc3c2[n+]1C", "%", 3],
  ["COC(=O)/C=C(/C(=O)OC)C(Cl)(Cl)Cl", "%", 6],
  ["CC(NCCN(C)C)C1CCC2C3CCc4cc(O)ccc4C3CCC12C (stereo not drawn)", "%", 3],
  ["COc1ccc(C(NCCNC(c2ccc(OC)c(OC)c2)c2cc3c(cc2O)OCO3)c2cc3c(cc2O)OCO3)cc1OC (stereo not drawn)", "%", 2]
]}

For each of the compounds below, state growth inhibition.
1. C=C1C(=O)OC2CC1C(OC(C)=O)C/C(C)=C/CC/C(C)=C\CCC2(C)O (stereo not drawn)
2. Nc1cc(N)c(N=Nc2cccc3c(S(=O)(=O)O)cccc23)cc1N=Nc1cc([N+](=O)[O-])ccc1O
3. Cc1nc2ccccc2nc1NNc1ccccc1
4. O=[N+]([O-])c1cc[n+]([O-])cc1

Solution:
13
-7
1
-2
